experiment_notes: Luminescence Cell-Based Dose Confirmation HTS to Identify Activators of 5'UTR Stem-Loop Driven Alpha-Synuclein mRNA Translation in H4 Neuroglioblastoma Cells. [Related pubchem assays: 1829 (Project Summary), 1814 (Primary HTS)]
Type: functional
Calls of active or inactive are those of the source.
readout: EC50

Illustrative cases are given below, each with its answer.
> print(dat)
                                   compound            result
1         CCc1n[nH]c(SCc2ccc(OCC(C)C)cc2)n1  22.6 µM (active)
2  CCOC(=O)C1(Cc2cccc(OC)c2)CCCN(C(=O)c2cc(C)[nH]n2)C1 (centres undefined)  12.5 µM (active)
3  CC(C)c1ccc2[nH]c3c(c2c1)[C@@H]1CCN2C(=O)CCC[C@H](C3)[C@H]12  11.9 µM (active)

Entry Cn1c(=O)n(/N=C/c2ccccc2)c2ccccc21 : reported EC50 = ? 17.3 µM (active)

###

Give IC50 for every item shown.
measured_target: G-protein coupled receptor 55 (Homo sapiens, UniProt Q9Y2T6)
Sequence (Q9Y2T6 whole entry): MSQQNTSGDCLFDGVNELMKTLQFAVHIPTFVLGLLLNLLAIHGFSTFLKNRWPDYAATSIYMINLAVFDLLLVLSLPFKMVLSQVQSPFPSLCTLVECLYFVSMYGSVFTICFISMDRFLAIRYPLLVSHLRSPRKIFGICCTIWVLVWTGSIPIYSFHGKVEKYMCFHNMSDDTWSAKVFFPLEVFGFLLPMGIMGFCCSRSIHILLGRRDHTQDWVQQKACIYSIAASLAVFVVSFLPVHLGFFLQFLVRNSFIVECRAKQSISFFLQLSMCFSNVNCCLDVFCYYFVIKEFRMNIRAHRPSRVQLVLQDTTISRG
experiment_notes: GPR55 antagonists blocking LPI-driven arrestin recruitment, primary screen, imaging, U2OS, beta-arrestin-GFP, LPI agonist (AID 2013);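 note: antagonist potency measured as reduced agonist-driven arrestin aggregation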
Type: functional
Activity calls are given as the source filed them.

Please give IC50, item by item, for the list that follows.
1. Cc1cccc(Cc2cnc(N3C(=N)SC(C)C3=O)s2)c1 (centres undefined)
2. C=C(c1ccc(O)cc1)c1ccc(O)cc1
3. S=c1[nH]nc(CSCc2ccccc2Cl)n1C1CCCCC1
4. CCCN1C(=O)/C(=C\C=C2\N(CC)c3ccccc3C2(C)C)SC1=S

1. 847 nM (active)
2. 1750 nM (active)
3. 3700 nM (active)
4. 824 nM (active)

###

measured_target: Replicative DNA helicase DnaB (Mycobacterium tuberculosis, UniProt P9WMR3)
experiment_notes: DnaB intein splicing inhibitors, dose response, biochemical, cell-free fluorescence (AID 449749)
Type: functional
Calls of active or inactive are those of the source.
Your response should consist of one outcome taken from yes = active, no = inactive

A selection of reference data follows.
> print(dat)
                                  compound                           measured.target  class.name
1         CCCOC(=O)c1ccc(OC(=O)c2ccco2)cc1  Replicative DNA helicase DnaB (Mycobacterium tuberculosis, UniProt P9WMR3)         yes
2  Oc1cccc(Nc2nc(-c3ccccc3Cl)nc3ccccc23)c1  Replicative DNA helicase DnaB (Mycobacterium tuberculosis, UniProt P9WMR3)         yes
3      CC1=NN(c2ccccc2)C(=O)C1 [EDARAVONE]  Replicative DNA helicase DnaB (Mycobacterium tuberculosis, UniProt P9WMR3)         yes

Please let me know the test result on file for Cc1n[nH]c(O)c1C(c1ccc(O)c(Br)c1)c1c(C)n[nH]c1O . yes

Please let me know the test result on file for COC(=O)c1sc(-c2ccc(C(C)(C)C)cc2)cc1NC(=O)/C=C/C(=O)O . yes

Please let me know the test result on file for FC(F)(F)c1ccc(C2[C@H]3CN(Cc4cccnc4)[C@H](c4ccccc4)C34CC2(c2cccnc2)C4)cc1 (stereo not given in full) . yes

Please let me know the test result on file for O=C(N/N=C/c1ccc(-c2ccccc2[N+](=O)[O-])o1)[C@H]1C[C@@H]1c1ccccc1 . yes

Please let me know the test result on file for CCN(Cc1ccccc1)S(=O)(=O)c1ccc(C(=O)N(CCCN(C)C)c2nc3cc(C)cc(C)c3s2)cc1 . yes

Please let me know the test result on file for N#CC1=C(N)Oc2[nH]nc(-c3cccs3)c2C1c1ccncc1 (stereo not given) . yes

Please let me know the test result on file for N#CC(c1ccccc1)c1cnccn1 (stereo not given) . no

###

Test system: H9c2;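 note: cell death induced by hydrogen peroxide oxidative stress; compound pretreatment for 60 min then peroxide exposure for 2 h; potency is for protecting the cells against peroxide damage rather than for killing them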;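 note: confirmatory concentration-response retest of ultra-high-throughput screening hits for modulation of myocardial damage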
experiment_notes: cells
Assay type: functional, cell-based
condition_context: Rattus norvegicus, H9c2, Myocardium
Activity calls are given as the source filed them.
Your response should consist of one outcome taken from T (active), F (inactive)

A selection of reference data follows.
> print(dat)
                                   compound  class.name
1  O=C(NN=Cc1ccc(N2CCOCC2)s1)c1ccc([N+](=O)[O-])cc1           T
2  O=C(c1ccccc1)c1ccc2nc(N3CCN(C(=O)c4ccco4)CC3)c3nncn3c2c1           F
3  CC(C)(C)OC(=O)NCC12C=CC(O1)C1C(=O)N(Cc3ccccc3)C(=O)C12 (stereo unspecified)           F
4  COc1cc2c(cc1OC)C(COc1ccc3c(C)cc(=O)oc3c1)N(C(=O)c1ccco1)CC2 (stereo unspecified)           F
5  COc1cc(/C=C/C(=O)Nc2ccc3nc4n(c(=O)c3c2)CCCC4)cc(OC)c1OC           F

Could you now look at the following compound, please?
Please let me know the test result on file for CC1CN(c2nn3c(=O)c4ccccc4nc3c3ccccc23)CC(C)O1 (stereo unspecified) . F

###

experiment_notes: NIH-3T3 fibroblast cytotoxicity, dose response, cytotoxicity control, cell-based, fluorescence, Alamar Blue, secondary assay (AID 2327);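 note: NIH-3T3 mouse fibroblasts cultured with fluconazole at 8 µg/mL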
Format: functional
Active and inactive are the calls of the source.
Your response should consist of one outcome taken from class 1 (active), class 0 (inactive)

A selection of reference data follows.
> print(dat)
                                   compound  class.name
1        COc1cnc(-c2ccccn2)nc1Sc1cccc(Cl)c1     class 0
2  CCN(c1ccccc1)S(=O)(=O)c1ccc(C(=O)Nc2nnc(C3CC3)o2)cc1     class 0
3            Sc1nnc(-c2cccs2)n1/N=C/c1cccs1     class 0
4      CN(C)c1ccc(-c2n(C)c3ccccc3[n+]2C)cc1     class 0
5   COc1ccc2c(c1)c(/C=C/c1cc[n+](C)cc1)cn2C     class 0

Could you now look at the following compound, please?
Please let me know the test result on file for CC(C)C(Sc1nc(-c2ccccc2)cc(-c2ccccc2)c1C#N)C(=O)O (stereo unspecified) . class 1

###

measured_target: Ubiquitin-conjugating enzyme E2 N (Homo sapiens);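 note: Dose-response confirmation in a TR-FRET assay detecting UBC13-driven polyubiquitin chain formation, inhibition measured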
Sequence (P61088 whole entry): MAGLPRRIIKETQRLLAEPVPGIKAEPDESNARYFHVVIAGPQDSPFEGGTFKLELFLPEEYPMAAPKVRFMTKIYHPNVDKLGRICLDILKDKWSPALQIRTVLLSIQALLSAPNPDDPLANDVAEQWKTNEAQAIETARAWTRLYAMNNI
Format: functional
The source made the active and inactive calls.
Your response should consist of one outcome taken from active, inactive

A selection of reference data follows.
> print(dat)
                                    compound                           measured.target  class.name
 1  CCOC(=O)c1cc(-c2ccccc2)nc2ccc(C)cc12 [NEOCINCHOPHEN]  Ubiquitin-conjugating enzyme E2 N (Homo sapiens)    inactive
 2        COc1ccc(OCC(=O)NNC(=O)c2ccccn2)cc1  Ubiquitin-conjugating enzyme E2 N (Homo sapiens)    inactive
 3  O=C1Nc2cc(C(=O)NCCCN3CCOCC3)ccc2S/C1=C/c1cccc(Cl)c1  Ubiquitin-conjugating enzyme E2 N (Homo sapiens)    inactive
 4  Cc1ccc(-c2csc(NC(=O)C[n+]3cc(-c4ccc(C)cc4)n4c3CCC4)n2)cc1  Ubiquitin-conjugating enzyme E2 N (Homo sapiens)    inactive
 5  O=C(C[n+]1ccc(CCSc2ccc(F)cc2)cc1)c1ccccc1  Ubiquitin-conjugating enzyme E2 N (Homo sapiens)      active
 6       COC(=O)Cc1cc(O)nc(Nc2nc3ccccc3o2)n1  Ubiquitin-conjugating enzyme E2 N (Homo sapiens)    inactive
 7  NC(=O)c1nsc(C(=O)N(c2cccc(F)c2)C(C(=O)NC2CCCC2)c2ccco2)c1N (stereo unspecified)  Ubiquitin-conjugating enzyme E2 N (Homo sapiens)    inactive
 8  O=C(c1ccc(-c2cc(O)c3ncccc3c2)cc1)N1CCNCC1  Ubiquitin-conjugating enzyme E2 N (Homo sapiens)      active
 9   COc1cc2nc(Nc3ccc(C)c(Cl)c3)nc(N)c2cc1OC  Ubiquitin-conjugating enzyme E2 N (Homo sapiens)      active
10  CCN(Cc1ccccc1)S(=O)(=O)c1ccc(C(=O)N(CCCN(C)C)c2nc3cc(C)cc(C)c3s2)cc1  Ubiquitin-conjugating enzyme E2 N (Homo sapiens)    inactive

Could you now look at the following compound, please?
Please let me know the test result on file for CCN1CCN(Cc2ccc(NC(=O)c3cc(NC(=O)C(=O)c4c[nH]c5ccccc45)cc(OC)c3)cc2C(F)(F)F)CC1 . active

###

measured_target: Short transient receptor potential channel 4 (Mus musculus, UniProt Q9QUQ5)
Sequence (Q9QUQ5 whole entry): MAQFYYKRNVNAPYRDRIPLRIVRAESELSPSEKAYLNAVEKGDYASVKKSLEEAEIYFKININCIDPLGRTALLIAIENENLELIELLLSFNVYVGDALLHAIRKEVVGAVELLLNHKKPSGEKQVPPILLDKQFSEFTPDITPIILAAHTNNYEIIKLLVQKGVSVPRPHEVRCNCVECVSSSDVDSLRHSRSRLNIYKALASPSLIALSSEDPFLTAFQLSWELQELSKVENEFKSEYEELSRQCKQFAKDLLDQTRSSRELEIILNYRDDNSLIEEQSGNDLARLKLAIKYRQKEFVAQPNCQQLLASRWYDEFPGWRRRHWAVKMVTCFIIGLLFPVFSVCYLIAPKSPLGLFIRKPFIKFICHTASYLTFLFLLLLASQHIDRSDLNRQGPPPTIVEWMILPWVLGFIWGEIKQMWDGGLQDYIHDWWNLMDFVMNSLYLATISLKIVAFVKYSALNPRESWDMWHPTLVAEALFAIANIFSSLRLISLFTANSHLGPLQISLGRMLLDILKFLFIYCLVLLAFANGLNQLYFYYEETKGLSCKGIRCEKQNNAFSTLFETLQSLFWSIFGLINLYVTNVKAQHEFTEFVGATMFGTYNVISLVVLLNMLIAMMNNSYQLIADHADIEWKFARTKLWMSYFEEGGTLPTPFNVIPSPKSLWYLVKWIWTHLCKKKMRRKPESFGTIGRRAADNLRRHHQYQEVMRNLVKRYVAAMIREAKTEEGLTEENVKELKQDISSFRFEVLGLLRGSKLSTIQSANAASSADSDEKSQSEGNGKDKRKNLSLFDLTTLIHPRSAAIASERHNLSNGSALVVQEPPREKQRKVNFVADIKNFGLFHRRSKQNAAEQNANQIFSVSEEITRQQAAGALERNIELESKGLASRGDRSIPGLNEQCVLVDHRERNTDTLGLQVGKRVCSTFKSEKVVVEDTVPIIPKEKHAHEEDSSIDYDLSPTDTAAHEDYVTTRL
experiment_notes: mouse TRPC4 channel inhibitors, dose response, cell-based, HEK293 TRPC4/mu-opioid, Fluo-4 calcium (AID 434942);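 note: potency of inhibitors blocking the TRPC4 calcium response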
Format: functional
Calls of active or inactive are those of the source.
Give EC50 for every item shown.

> print(dat)
                                   molecule             result
1  CC1CCCN1CC#CC(O)(c1ccccc1)c1ccccc1 (stereo not drawn)  0.188 µM (active)

Please give EC50, item by item, for the list that follows.
1. FC(F)Oc1ccccc1N=C(S)Nc1cccc(Cl)c1Cl
2. COc1ccc(C2CC(c3ccccc3)Nc3nc(NC(=O)c4cccs4)nn32)cc1 (stereo not drawn)
3. CCOC(=O)c1c(-c2cccc(C)c2)csc1NC(=O)C1CC=CCC1C(=O)O (stereo not drawn)
4. CC(C)C(=O)Nc1ccc(C(=O)Nc2nnc(C(C)(C)C)s2)cc1
5. C=C(c1ccc(O)cc1)c1ccc(O)cc1

7.5 µM (active)
1.06 µM (active)
7.5 µM (active)
0.237 µM (active)
3.76 µM (active)

Please give EC50, item by item, for the list that follows.
1. CCCOc1cccc(C(=O)NCCNC(=O)c2ccco2)c1
2. c1csc(-c2nc(NCC3CCCO3)c3ccccc3n2)c1 (stereo not drawn)

1: 2.99 µM (active); 2: 4.73 µM (active)
